- assayMethodText: In vivo pharmacokinetics in rats
- Parameters: species or system Male Wistar rats
- conditionDetails: male, Wistar, rat, plasma, iv, 200 ug/kg
endpointName: AUC(0-inf) (ng·h/mL)
Field: numeric (ng·h/mL). Do not append units.

Exercise: Any idea what AUC(0-inf) was measured for CO[C@H]1O[C@H](COS(=O)(=O)O)[C@@H](O[C@@H]2O[C@@H](C(=O)O)[C@@H](O[C@H]3O[C@H](COS(=O)(=O)O)[C@@H](O[C@@H]4O[C@H](C(=O)O)[C@@H](O[C@H]5O[C@H](COS(=O)(=O)O)[C@@H](O)[C@H](O)[C@H]5NS(=O)(=O)O)[C@H](O)[C@H]4O)[C@H](OS(=O)(=O)O)[C@H]3NS(=O)(=O)O)[C@H](O)[C@H]2OS(=O)(=O)O)[C@H](O)[C@H]1NS(=O)(=O)O [Fp, fondaparinux] ?
Key: 2300

---

- assayMethodText: In vivo pharmacokinetics in rats
- Design: species or system Male Wistar rats
- conditionDetails: male, Wistar, rat, plasma, iv, 200 ug/kg, T1/2, rat, IV bolus
endpointName: half-life (h)
Field: numeric (h). Do not append units.

Exercise: Any idea what half-life was measured for CO[C@H]1O[C@H](COS(=O)(=O)O)[C@@H](O[C@@H]2O[C@@H](C(=O)O)[C@@H](O[C@H]3O[C@H](COS(=O)(=O)O)[C@@H](O[C@@H]4O[C@H](C(=O)O)[C@@H](O[C@H]5O[C@H](COS(=O)(=O)O)[C@@H](O)[C@H](O)[C@H]5NS(=O)(=O)O)[C@H](O)[C@H]4O)[C@H](OS(=O)(=O)O)[C@H]3NS(=O)(=O)O)[C@H](O)[C@H]2OS(=O)(=O)O)[C@H](O)[C@H]1NS(=O)(=O)O ?
Key: 1.8

---

- assayMethodText: In vivo pharmacokinetics in rats
- Design: species or system Male Wistar rats
- conditionDetails: male, Wistar, rat, plasma, iv, 200 ug/kg, MRT, IV bolus
endpointName: MRT

Exercise: Any idea what MRT was measured for CO[C@H]1O[C@H](COS(=O)(=O)O)[C@@H](O[C@@H]2O[C@@H](C(=O)O)[C@@H](O[C@H]3O[C@H](COS(=O)(=O)O)[C@@H](O[C@@H]4O[C@H](C(=O)O)[C@@H](O[C@H]5O[C@H](COS(=O)(=O)O)[C@@H](O)[C@H](O)[C@H]5NS(=O)(=O)O)[C@H](O)[C@H]4O)[C@H](OS(=O)(=O)O)[C@H]3NS(=O)(=O)O)[C@H](O)[C@H]2OS(=O)(=O)O)[C@H](O)[C@H]1NS(=O)(=O)O [Fp, fondaparinux] ?
Key: 1.17 h

---

- assayMethodText: In vivo pharmacokinetics in rats
- Set-up: species or system Male Wistar rats
- conditionDetails: male, Wistar, rat, plasma, po, 5 mg/kg, T1/2, rat, 5 mg/kg Fp
endpointName: half-life (min)
Field: numeric (min). Do not append units.

Exercise: Any idea what half-life was measured for CO[C@H]1O[C@H](COS(=O)(=O)O)[C@@H](O[C@@H]2O[C@@H](C(=O)O)[C@@H](O[C@H]3O[C@H](COS(=O)(=O)O)[C@@H](O[C@@H]4O[C@H](C(=O)O)[C@@H](O[C@H]5O[C@H](COS(=O)(=O)O)[C@@H](O)[C@H](O)[C@H]5NS(=O)(=O)O)[C@H](O)[C@H]4O)[C@H](OS(=O)(=O)O)[C@H]3NS(=O)(=O)O)[C@H](O)[C@H]2OS(=O)(=O)O)[C@H](O)[C@H]1NS(=O)(=O)O ?
Key: 51.7
